- MEASUREMENT PROTOCOL: Cytotoxicity against human HeLa cells assessed as reduction in cell viability incubated for 48 hrs by cellTiter-glo assay
- Type: toxicity, cell-based
MEASUREMENT KIND: CC50 at 48 h

[[record]]
substance_smiles = "NS(=O)(=O)c1ccc(NC(=O)CSc2nnc(Br)n2-c2ccc(C3CC3)c3ccccc23)c(Cl)c1"
measurement_kind = "CC50 at 48 h"
result = "≥ 3 µM"

